Conditions: 343.15 K; 101.33 kPa; Liquid; Vibrating tube method
The entries below come with measured mass density values attached.
Measure: mass density (kg/m3)

Compound	Measure	Measured Result
CCCCCC(=O)OC [methyl hexanoate]	mass density	835.87
CCCCCCC(=O)OC [methyl heptanoate]	mass density	833.87
CCCCCCCC(=O)OC [methyl octanoate]	mass density	832.44
CCCCCCCCCCCCCC(=O)OC [methyl tetradecanoate]	mass density	828.8
CCCCCCC(=O)OCC [ethyl heptanoate]	mass density	824.1
CCCCCCCC(=O)OCC [ethyl octanoate]	mass density	823.46
CCCCCCCCCCCC [dodecane]	mass density	711.32
CCCCCCCCCCCCCC(=O)OCC [ethyl tetradecanoate]	mass density	822.77
CCCCCCCCCC(=O)OC [methyl decanoate]	mass density	830.94
CCCCCCCCCCCC(=O)OC [methyl dodecanoate]	mass density	829.63
CCCCCCCCCC(=O)OCC [ethyl decanoate]	mass density	822.79
CCCCCC(=O)OCC [ethyl hexanoate]	mass density	823.72
CCCCCCCCCCCC(=O)OCC [ethyl dodecanoate]	mass density	822.74

---

Experiment: refractive index (Na D-line) (dimensionless)
Conditions: 298.15 K; 101.33 kPa; Liquid; Standard Abbe refractometry
Measure: refractive index

Compound	Measured Result
CCCCCCCC(=O)OC [methyl octanoate]	1.41516
CCCCCCCCCCCC(=O)OC [methyl dodecanoate]	1.43009
CCCCCCCCCC(=O)OC [methyl decanoate]	1.42359
CCCCCCCCCCCC(=O)OCC [ethyl dodecanoate]	1.42961
CCCCCCCC(=O)OCC [ethyl octanoate]	1.41587
CCCCCCC(=O)OCC [ethyl heptanoate]	1.41119
CCCCCC(=O)OCC [ethyl hexanoate]	1.40525
CCCCCC(=O)OC [methyl hexanoate]	1.403
CCCCCCCCCCCCCC(=O)OC [methyl tetradecanoate]	1.43499
CCCCCCC(=O)OC [methyl heptanoate]	1.40976
CCCCCCCCCCCCCC(=O)OCC [ethyl tetradecanoate]	1.43432
CCCCCCCCCC(=O)OCC [ethyl decanoate]	1.42366

---

The entries below come with measured refractive index values attached.
Test: refractive index (Na D-line) (dimensionless)
Settings: 333.15 K; 101.33 kPa; Liquid; Standard Abbe refractometry

Compound	refractive index
CCCCCCCCCCCC(=O)OCC [ethyl dodecanoate]	1.41501
CCCCCCCC(=O)OCC [ethyl octanoate]	1.40042
CCCCCCCC(=O)OC [methyl octanoate]	1.39965
CCCCCCCCCC(=O)OCC [ethyl decanoate]	1.40873
CCCCCCC(=O)OCC [ethyl heptanoate]	1.39535
CCCCCCCCCCCCCC(=O)OC [methyl tetradecanoate]	1.4202
CCCCCCCCCCCCCC(=O)OCC [ethyl tetradecanoate]	1.42004
CCCCCC(=O)OC [methyl hexanoate]	1.38667
CCCCCCCCCCCC(=O)OC [methyl dodecanoate]	1.41542
CCCCCC(=O)OCC [ethyl hexanoate]	1.38897
CCCCCCCCCC(=O)OC [methyl decanoate]	1.40871
CCCCCCC(=O)OC [methyl heptanoate]	1.39389

---

Conditions: 423.15 K; 101.33 kPa; Liquid; Vibrating tube method
± gives the expanded uncertainty stated by the source.
The entries below come with measured mass density values attached.

Compound	mass density
CCCCCC(=O)OCC [ethyl hexanoate]	744.07 ± 1.5 kg/m3
CCCCCCCCCCCCCC(=O)OC [methyl tetradecanoate]	768.24 ± 1.5 kg/m3
CCCCCCCCCC(=O)OC [methyl decanoate]	763.71 ± 1.5 kg/m3
CCCCCCCCCCCC	651.53 ± 1.3 kg/m3
CCCCCCCCCCCC(=O)OC [methyl dodecanoate]	766.34 ± 1.5 kg/m3
CCCCCCCC(=O)OC [methyl octanoate]	759.27 ± 1.5 kg/m3
CCCCCCCCCCCC(=O)OCC [ethyl dodecanoate]	759.99 ± 1.5 kg/m3
CCCCCCC(=O)OC [methyl heptanoate]	756.62 ± 1.5 kg/m3
CCCCCCCC(=O)OCC [ethyl octanoate]	751.94 ± 1.5 kg/m3
CCCCCCCCCCCCCC(=O)OCC [ethyl tetradecanoate]	762.65 ± 1.5 kg/m3
CCCCCCC(=O)OCC [ethyl heptanoate]	748.89 ± 1.5 kg/m3
CCCCCCCCCC(=O)OCC [ethyl decanoate]	756.81 ± 1.5 kg/m3

---

Settings: 313.15 K; 101.33 kPa; Liquid; Vibrating tube method
Numbers after ± are expanded uncertainties.
The entries below come with measured mass density values attached.

Molecule	mass density
CCCCCC(=O)OC [methyl hexanoate]	865.12 ± 1.7 kg/m3
CCCCCCCCCCCCCC(=O)OCC [ethyl tetradecanoate]	845.46 ± 1.7 kg/m3
CCCCCCCC(=O)OCC [ethyl octanoate]	849.55 ± 1.7 kg/m3
CCCCCCCCCCCCCC(=O)OC [methyl tetradecanoate]	851.61 ± 1.7 kg/m3
CCCCCCC(=O)OCC [ethyl heptanoate]	851.32 ± 1.7 kg/m3
CCCCCC(=O)OCC [ethyl hexanoate]	851.2 ± 1.7 kg/m3
CCCCCCCC(=O)OC [methyl octanoate]	858.95 ± 1.7 kg/m3
CCCCCCCCCC(=O)OC [methyl decanoate]	855.73 ± 1.7 kg/m3
CCCCCCCCCCCC(=O)OC [methyl dodecanoate]	853.32 ± 1.7 kg/m3
CCCCCCCCCC(=O)OCC [ethyl decanoate]	847.62 ± 1.7 kg/m3
CCCCCCCCCCCC [dodecane]	734.08 ± 1.5 kg/m3
CCCCCCC(=O)OC [methyl heptanoate]	861.6 ± 1.8 kg/m3
CCCCCCCCCCCC(=O)OCC [ethyl dodecanoate]	845.31 ± 1.7 kg/m3

---

Details: 433.15 K; 101.33 kPa; Liquid; Vibrating tube method

Compound	Measurement Unit	mass density
CCCCCCCCCCCC(=O)OCC [ethyl dodecanoate]	kg/m3	751.6
CCCCCCCCCC(=O)OCC [ethyl decanoate]	kg/m3	748.26
CCCCCCCCCC(=O)OC [methyl decanoate]	kg/m3	755
CCCCCCCC(=O)OCC [ethyl octanoate]	kg/m3	742.64
CCCCCCC(=O)OC [methyl heptanoate]	kg/m3	746.31
CCCCCCCCCCCCCC(=O)OCC [ethyl tetradecanoate]	kg/m3	755.04
CCCCCCCCCCCC(=O)OC [methyl dodecanoate]	kg/m3	758.26
CCCCCCCC(=O)OC [methyl octanoate]	kg/m3	749.61
CCCCCCCCCCCCCC(=O)OC [methyl tetradecanoate]	kg/m3	760.61
CCCCCCCCCCCC [dodecane]	kg/m3	643.6
CCCCCCC(=O)OCC [ethyl heptanoate]	kg/m3	738.95

---

Conditions: 303.15 K; 101.33 kPa; Liquid; Vibrating tube method
Measure: mass density (kg/m3)

Compound	Measure	Measurement Unit	Measured Result
CCCCCCC(=O)OC [methyl heptanoate]	mass density	kg/m3	870.75
CCCCCCCC(=O)OCC [ethyl octanoate]	mass density	kg/m3	858.27
CCCCCCCC(=O)OC [methyl octanoate]	mass density	kg/m3	866.75
CCCCCCCCCCCC	mass density	kg/m3	741.42
CCCCCCCCCC(=O)OCC [ethyl decanoate]	mass density	kg/m3	855.82
CCCCCCCCCCCCCC(=O)OC [methyl tetradecanoate]	mass density	kg/m3	859.28
CCCCCCCCCCCC(=O)OC [methyl dodecanoate]	mass density	kg/m3	861.25
CCCCCCC(=O)OCC [ethyl heptanoate]	mass density	kg/m3	860.36
CCCCCCCCCCCCCC(=O)OCC [ethyl tetradecanoate]	mass density	kg/m3	853.07
CCCCCC(=O)OCC [ethyl hexanoate]	mass density	kg/m3	861.61
CCCCCC(=O)OC [methyl hexanoate]	mass density	kg/m3	874.79
CCCCCCCCCCCC(=O)OCC [ethyl dodecanoate]	mass density	kg/m3	853.15
CCCCCCCCCC(=O)OC [methyl decanoate]	mass density	kg/m3	864.01

---

Assay: refractive index (Na D-line) (dimensionless)
Conditions: 293.15 K; 101.33 kPa; Liquid; Standard Abbe refractometry
The entries below come with measured refractive index values attached.

Molecule	refractive index
CCCCCCCCCC(=O)OC [methyl decanoate]	1.42571
CCCCCCCCCCCC(=O)OCC [ethyl dodecanoate]	1.43169
CCCCCCCCCCCCCC(=O)OCC [ethyl tetradecanoate]	1.43636
CCCCCCCCCCCCCC(=O)OC [methyl tetradecanoate]	1.43704
CCCCCC(=O)OCC [ethyl hexanoate]	1.40753
CCCCCCCC(=O)OC [methyl octanoate]	1.41734
CCCCCCCC(=O)OCC [ethyl octanoate]	1.41807
CCCCCC(=O)OC [methyl hexanoate]	1.40529
CCCCCCC(=O)OC [methyl heptanoate]	1.41199
CCCCCCC(=O)OCC [ethyl heptanoate]	1.41341
CCCCCCCCCCCC(=O)OC [methyl dodecanoate]	1.43216
CCCCCCCCCC(=O)OCC [ethyl decanoate]	1.42577
